Quick list: self-splicing fitness (ln) per entry.
Assay: self-splicing fitness, log relative to wild type (ln ratio); higher = more splicing; Tetrahymena group I intron in knt gene, E. coli kanamycin selection, DiMSum; sequences stand for … in CUCUCU…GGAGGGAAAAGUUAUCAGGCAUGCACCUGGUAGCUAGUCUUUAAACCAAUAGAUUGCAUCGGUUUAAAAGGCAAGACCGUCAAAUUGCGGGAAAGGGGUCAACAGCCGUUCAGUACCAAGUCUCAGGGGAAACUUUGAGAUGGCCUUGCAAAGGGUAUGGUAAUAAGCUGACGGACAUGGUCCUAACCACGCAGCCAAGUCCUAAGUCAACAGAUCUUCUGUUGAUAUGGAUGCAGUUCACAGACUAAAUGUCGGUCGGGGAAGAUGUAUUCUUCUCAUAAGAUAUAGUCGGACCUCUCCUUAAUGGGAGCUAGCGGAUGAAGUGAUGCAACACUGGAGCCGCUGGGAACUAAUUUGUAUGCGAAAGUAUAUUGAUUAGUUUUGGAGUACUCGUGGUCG;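 note: selection with 25 µg/mL kanamycin versus none on LB agar overnight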
Conditions: 37 °C
Experimental readout: self-splicing fitness (ln)

[
  {
    "Ordered residues": "UGCUAGCAAUAUUACGAUUA",
    "Quantitative result": -0.286
  },
  {
    "Ordered residues": "CCGCAGCAAUAUUACGGGUA",
    "Quantitative result": -2.44
  },
  {
    "Ordered residues": "GCUCAGCAAUAUUACGUCGC",
    "Quantitative result": -0.137
  },
  {
    "Ordered residues": "GUCUAGCAAUAUUACGGCUG",
    "Quantitative result": -1.91
  },
  {
    "Ordered residues": "GAUCAGCAAUAUUACGUGGC",
    "Quantitative result": -0.582
  },
  {
    "Ordered residues": "CAGCAGCAAUAUUACGCAAU",
    "Quantitative result": -1.29
  },
  {
    "Ordered residues": "UUACAGCAAUAUUACGCUAG",
    "Quantitative result": -0.391
  },
  {
    "Ordered residues": "AGAAAGCAAUAUUACGGCAA",
    "Quantitative result": -0.187
  },
  {
    "Ordered residues": "AGGUAGCAAUAUUACGUCCC",
    "Quantitative result": -0.535
  },
  {
    "Ordered residues": "GGACAGCAAUAUUACGCCAU",
    "Quantitative result": -2.03
  },
  {
    "Ordered residues": "UGUUAGCAAUAUUACGAGCA",
    "Quantitative result": -0.136
  },
  {
    "Ordered residues": "AUAGAGCAAUAUUACGCGAC",
    "Quantitative result": -1.3
  },
  {
    "Ordered residues": "GGUAAGCAAUAUUACGCGCG",
    "Quantitative result": 0.012
  },
  {
    "Ordered residues": "CCGCAGCAAUAUUACGAUAC",
    "Quantitative result": -2.19
  },
  {
    "Ordered residues": "ACAGAGCAAUAUUACGGAGA",
    "Quantitative result": -2.6
  },
  {
    "Ordered residues": "AGCUAGCAAUAUUACGGGCA",
    "Quantitative result": -0.379
  },
  {
    "Ordered residues": "AUCCAGCAAUAUUACGACCC",
    "Quantitative result": -0.202
  },
  {
    "Ordered residues": "UUGGAGCAAUAUUACGAAAC",
    "Quantitative result": -2.22
  },
  {
    "Ordered residues": "AACGAGCAAUAUUACGUGGC",
    "Quantitative result": -2.94
  },
  {
    "Ordered residues": "GACGAGCAAUAUUACGCCUC",
    "Quantitative result": -1.86
  },
  {
    "Ordered residues": "CCAAAGCAAUAUUACGCGCG",
    "Quantitative result": -0.994
  },
  {
    "Ordered residues": "AUAAAGCAAUAUUACGUUUG",
    "Quantitative result": -1.79
  },
  {
    "Ordered residues": "GCUGAGCAAUAUUACGCCAC",
    "Quantitative result": -2.27
  },
  {
    "Ordered residues": "CGUCAGCAAUAUUACGGUUU",
    "Quantitative result": -1.97
  },
  {
    "Ordered residues": "GUCAAGCAAUAUUACGACCU",
    "Quantitative result": -0.756
  },
  {
    "Ordered residues": "CAGCAGCAAUAUUACGACAU",
    "Quantitative result": -1.82
  },
  {
    "Ordered residues": "UAAUAGCAAUAUUACGACGG",
    "Quantitative result": -0.463
  },
  {
    "Ordered residues": "UAAGAGCAAUAUUACGCGGG",
    "Quantitative result": -3.91
  },
  {
    "Ordered residues": "AUUAAGCAAUAUUACGGUUC",
    "Quantitative result": -0.609
  },
  {
    "Ordered residues": "CCAUAGCAAUAUUACGGUUA",
    "Quantitative result": -2.73
  },
  {
    "Ordered residues": "CUCAAGCAAUAUUACGGACA",
    "Quantitative result": -2.1
  },
  {
    "Ordered residues": "GACGAGCAAUAUUACGGUAU",
    "Quantitative result": -2.08
  },
  {
    "Ordered residues": "AUGUAGCAAUAUUACGACUU",
    "Quantitative result": -0.312
  },
  {
    "Ordered residues": "AGGUAGCAAUAUUACGCUGA",
    "Quantitative result": -1.14
  }
]

---

Test: self-splicing fitness, log relative to wild type (ln ratio); higher = more splicing; Tetrahymena group I intron in knt gene, E. coli kanamycin selection, DiMSum; sequences stand for … in CUCUCU…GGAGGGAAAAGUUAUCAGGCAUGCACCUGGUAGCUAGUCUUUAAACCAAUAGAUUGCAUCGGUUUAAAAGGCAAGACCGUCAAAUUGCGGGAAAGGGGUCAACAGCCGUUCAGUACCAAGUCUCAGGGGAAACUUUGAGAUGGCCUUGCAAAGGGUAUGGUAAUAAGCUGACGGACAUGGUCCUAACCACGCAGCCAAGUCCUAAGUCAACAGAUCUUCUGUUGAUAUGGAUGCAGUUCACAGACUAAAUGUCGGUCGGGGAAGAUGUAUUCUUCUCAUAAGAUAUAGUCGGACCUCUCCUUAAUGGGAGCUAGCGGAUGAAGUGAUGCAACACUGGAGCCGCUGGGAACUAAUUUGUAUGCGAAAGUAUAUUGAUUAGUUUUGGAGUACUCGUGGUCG
Conditions: 37 °C
The threshold is inclusive: self-splicing fitness (ln) of exactly -2 counts as 1.0; values below receive 0.0.

[
  {
    "Ordered residues": "CGGAAGCAAUAUUACGGUGG",
    "Assigned label": 1.0
  },
  {
    "Ordered residues": "CAGAAGCAAUAUUACGGAGG",
    "Assigned label": 1.0
  },
  {
    "Ordered residues": "CGUCAGCAAUAUUACGCACG",
    "Assigned label": 1.0
  },
  {
    "Ordered residues": "GGGAAGCAAUAUUACGGCAA",
    "Assigned label": 1.0
  },
  {
    "Ordered residues": "CGAAAGCAAUAUUACGCACU",
    "Assigned label": 1.0
  },
  {
    "Ordered residues": "ACGCAGCAAUAUUACGGAUU",
    "Assigned label": 1.0
  },
  {
    "Ordered residues": "CGGGAGCAAUAUUACGGAUC",
    "Assigned label": 0.0
  },
  {
    "Ordered residues": "CGGAAGCAAUAUUACGUUGC",
    "Assigned label": 0.0
  },
  {
    "Ordered residues": "UUGAAGCAAUAUUACGGAGA",
    "Assigned label": 1.0
  },
  {
    "Ordered residues": "CCAAAGCAAUAUUACGGUGU",
    "Assigned label": 0.0
  },
  {
    "Ordered residues": "CUCCAGCAAUAUUACGUCCA",
    "Assigned label": 0.0
  },
  {
    "Ordered residues": "UCUUAGCAAUAUUACGGAUG",
    "Assigned label": 1.0
  },
  {
    "Ordered residues": "UCGGAGCAAUAUUACGGAGA",
    "Assigned label": 1.0
  },
  {
    "Ordered residues": "UCGUAGCAAUAUUACGAUGC",
    "Assigned label": 0.0
  },
  {
    "Ordered residues": "AUAAAGCAAUAUUACGUAUA",
    "Assigned label": 1.0
  },
  {
    "Ordered residues": "GCAAAGCAAUAUUACGCUAG",
    "Assigned label": 0.0
  },
  {
    "Ordered residues": "UAAUAGCAAUAUUACGCGGC",
    "Assigned label": 0.0
  }
]
